# TEST DESCRIPTION: pharmacokinetics and bioavailability in mouse plasma
# Type: in vivo, Crl:CD-1 mice
# PROTOCOL CONDITIONS: male, Crl:CD-1; mouse plasma; 1 mg/kg PO
# Protocol: Male Crl:CD-1 mice of 9~10 weeks of age were purchased from Charles River Laboratories, USA and maintained at standard food and water ad libitum in temperature-controlled room with 12 h on-off light cycle before the experiment. […] Resulting plasma were stored in a freezer set to maintain −70 °C until analyzed for 11o concentration. […] Dose proportionality was assessed, and bioavailability was calculated for PO dosing.
EXPERIMENTAL ENDPOINT: half-life (h)
One number for each entry, in h.

Q: Item under review: Cc1cc(Cn2ncc3c(-c4cccc(C#N)c4F)nc(N)nc32)ccc1N [11o] . Reported half-life?
A: 4.38
